# System: DLD1
# test_name: cell viability (CellTiter-Glo) relative to plate median (fraction of plate median); higher = more viable cells
# condition_label: 10 µM; treatment time 24 h; reporter: TCF4/Wnt
Where a name gives a salt, the structure may show the parent alone.
Binarize cell viability at 1; below is Criterion met, at or above is Criterion not met.

Worked set:
Oc1cc(O)cc(/C=C/c2ccc(O)c(O)c2)c1 [Piceatannol]    Criterion not met
Cc1cc(C(=O)NOCCO)c(Nc2ccc(I)cc2F)n(C)c1=O    Criterion not met
CCc1cccc(CC)c1NC(=O)N1Cc2[nH]nc(NC(=O)c3ccc(N4CCN(C)CC4)cc3)c2C1    Criterion not met
CCn1c(-c2nonc2N)nc2c(C#CC(C)(C)O)ncc(OC[C@H]3CCCNC3)c21    Criterion met

Exam item: Lab log: compare recorded cell viability with 1; is it strictly lower for `O=C(NC[C@H](O)CO)c1ccncc1Nc1ccc(I)cc1F` ?
Marked response: Criterion not met

Exam item: Does `N#CC[C@H](C1CCCC1)n1cc(-c2ncnc3[nH]ccc23)cn1` have cell viability strictly under 1?
Marked response: Criterion not met

Exam item: Hello, I'm reviewing records and need to know if cell viability of Cc1ccc(NC(=O)c2ccc(CN3CCN(C)CC3)cc2)cc1Nc1nccc(-c2cccnc2)n1 [Imatinib Mesylate] is below 1. Could you check?
Marked response: Criterion met

Exam item: Does the reported cell viability of the following compound sit strictly below 1? `C=CC(=O)Nc1ccc2ncnc(Nc3ccc(OCc4cccc(F)c4)c(Cl)c3)c2c1`
Marked response: Criterion not met

Exam item: In plain terms, does `NC(=O)c1ccc(N(C(N)=O)c2c(F)cccc2F)nc1-c1ccc(F)cc1F` come in under 1 for cell viability?
Marked response: Criterion not met

Exam item: Regarding `O=C1NC(=O)/C(=C/c2ccc3c(c2)OC(F)(F)O3)S1` , kindly confirm whether its cell viability is beneath 1.
Marked response: Criterion not met

Exam item: Problem: For the compound `COc1ccc(-c2ccc3c(N4CCOCC4)nc(N4C[C@@H](C)O[C@@H](C)C4)nc3n2)cc1CO` , is cell viability under 1?
Marked response: Criterion met

Exam item: Would you kindly verify if cell viability of `CN(C)Cc1cccc(N=C(c2ccccc2)c2c(O)[nH]c3cc(C(=O)N(C)C)ccc23)c1` is strictly less than 1?
Marked response: Criterion met

Exam item: Criterion: cell viability strictly below 1. Is it met by FC(F)(F)c1ccc(/C=C/c2nc(COc3ccc(CCCCn4ccnn4)cc3)co2)cc1 [Mubritinib (TAK 165)] ?
Marked response: Criterion met

Exam item: Does this compound meet the criterion cell viability < 1? `Nc1ncnc2c1c(-c1cnc3[nH]ccc3c1)nn2C1CCCC1`
Marked response: Criterion met
